# GI50 per entry
# Tested on: SK-MEL-5
# METHOD NOTES: NCI tumour cell line growth inhibition, 48 h
Active and inactive are the calls of the source. No stated cut-off is given here; in the data, active = GI50 up to about 1.1 µM and inactive = higher.

COC1=CC(=O)C2C(C1=O)C(c1ccccc1)[C@H]2C (some centres not stated) :: 80 µM (inactive)
COc1cnc2oc3ccc(O)cc3c2c1-c1ccccc1 :: 61.9 µM (inactive)
CCN(CC)C(=O)Cn1c2c(c3ccccc31)CCCC2 :: 64 µM (inactive)
O=Nc1ccc(O)c2ncccc12 :: 7.21 µM (inactive)
C1CSC[C@H]2COC[C@@H](CSCCS1)S2 :: > 100 µM (inactive)

Continue with the next compound.
Incoming: Item under review: `COC(=O)/N=[N+](\[O-])C(c1ccccc1)c1ccccc1` . Reported GI50?
Outgoing: 41.9 µM (inactive)

---

# Tested on: U-251
# METHOD NOTES: NCI tumour cell line growth inhibition, 48 h
Calls of active or inactive are those of the source. No stated cut-off is given here; in the data, active = GI50 up to about 1.1 µM and inactive = higher.
Write down one outcome, taken from True (active), False (inactive)

The examples below pair each entry with its known result.
CN(C)CCCNc1ccc2nnn3c4ccc(OC(=O)c5ccc([N+](=O)[O-])cc5)cc4c(=O)c1c23 :: False
COc1ccc2cc1Oc1ccc(cc1)CC1c3cc4c(cc3CCN1C)Oc1c(OC)cc3c(c1O4)C(C2)N(C)CC3 (stereo unspecified) :: False

Kindly review the next compound as well.
Incoming: Can you look up the reported call for `O=S1(=O)N=C(NCc2c[nH]c3ccccc23)N(c2ccccc2)c2ccncc21` for me?
Outgoing: False

---

# Test system: ACHN
# METHOD NOTES: NCI tumour cell line growth inhibition, 48 h
The source made the active and inactive calls. No stated cut-off is given here; in the data, active = GI50 up to about 1.1 µM and inactive = higher.
MEASURED METRIC: GI50

Record excerpt, results attached:
C=CC(OC(=O)C(C)C)c1ccc(OC(=O)C(C)C)cc1 (stereo not given) :: 14.6 µM (inactive)
CCOC(=O)CN(Cn1cncn1)Cn1cncn1 :: 36.6 µM (inactive)
c1ccc(P2c3ccccc3Nc3ccccc32)cc1 :: 86.5 µM (inactive)

Incoming: Item under review: `C[N+](CCCl)(CCCl)Cc1cccc2cccc([N+](=O)[O-])c12` . Reported GI50?
Outgoing: 44.5 µM (inactive)

Incoming: Then O=C1C[S+]([O-])C23c4cc5ccccc5n4CCC2CCCN13 (stereo not given) ?
Outgoing: > 100 µM (inactive)

---

# System: SK-OV-3
# METHOD NOTES: NCI tumour cell line growth inhibition, 48 h
The source made the active and inactive calls. Cut-off read from the data, not from the text of the source: active = GI50 up to about 1.1 µM and inactive = higher.
Write down one outcome, taken from t (active), f (inactive)

CC(=O)c1ccc(-c2oc(-c3ccccc3)cc2-c2ccc3c(c2)OCO3)s1 :: f
C/N=C(N)/N=C(\N)Nc1cc2ccccc2c2ccccc12 :: f
COc1ccc(-c2nc(N)c(C#N)c3c2CCSc2ccc(C)cc2-3)cc1OC :: f

Incoming: Can you look up the reported call for CC1[C@@]2(O[C@@H]3C=C4C5CCC6Cc7nc8c(nc7C[C@@]6(C)C5C[C@H](O)[C@@]4(C)[C@]13O)CC1CCc3c(cc4c5c3C(O)C[C@H]5[C@@H](C)C3(O4)OC(C)(C)CC3O)[C@]1(C)C8)O[C@@](C)(CO)C[C@@H]2O (some centres undefined) for me?
Outgoing: t

---

# Tested on: NCI-H226
# METHOD NOTES: NCI tumour cell line growth inhibition, 48 h
The source made the active and inactive calls. No stated cut-off is given here; in the data, active = GI50 up to about 1.1 µM and inactive = higher.
Write down one outcome, taken from YES (active), NO (inactive)

COc1ccc(C(=O)Cn2c(C(=O)/C=C/c3ccco3)nc3ccccc32)cc1 :: NO
[O-][S+]1Cc2ccccc2CS1 (centres undefined) :: NO
CC(C)/C=C1\CCC(CN2CCCC2)C1=O (centres undefined) :: NO

Incoming: Can you look up the reported call for COc1ccc(C2(CN(C)C)COc3cc(OC)c(OC)cc3C2=O)cc1OC (centres undefined) for me?
Outgoing: NO

Incoming: Then Cc1cc(C)c(C2=NOC(c3ccccc3)(c3cc(=O)n(-c4ccccc4)s3)O2)c(C)c1 (centres undefined) ?
Outgoing: NO

Incoming: Then `CN(C)CCNCCCNc1c2ccccc2nc2cccc([N+](=O)[O-])c12` ?
Outgoing: YES

Incoming: Then COc1cccc(N2C(=O)C3CC(CC(C)(C)C)c4c([nH]c5ccccc45)C3C2=O)c1 (centres undefined) ?
Outgoing: NO

---

# System: HOP-62
# METHOD NOTES: NCI tumour cell line growth inhibition, 48 h
Active and inactive are the calls of the source. Rule as the data show it: active = GI50 up to about 1.1 µM and inactive = higher.
MEASURED METRIC: GI50

Record excerpt, results attached:
CC(=O)O[C@H]1[C@@H](N2CCCCC2)C[C@H]2[C@@H]3CC=C4C[C@@H](N5CCCC5)CC[C@]4(C)[C@H]3CC[C@@]21C :: 49.8 µM (inactive)
CN(C)c1nc(N(C)C)sc(=O)n1 :: > 100 µM (inactive)
Cc1cc2c(cc1-c1cc3c(cc1C)C(C(C)C)=C(O)C(=O)/C3=C\NCC1CCCN3CCCCC13)/C(=C/NCC1CCCN3CCCCC13)C(=O)C(O)=C2C(C)C (stereo not given) :: 4.27 µM (inactive)
COc1cc2c(c(O)c1O)C(=O)C1CCC(=O)N1C2c1cccc2ccccc12 (stereo not given) :: > 50 µM (inactive)
CC(=O)NCc1c(C(N)=O)ncn1Cc1ccccc1 :: > 100 µM (inactive)

Incoming: Item under review: `COc1ccc(/N=N/c2c(N)nn(C)c2N)cc1` . Reported GI50?
Outgoing: > 100 µM (inactive)

Incoming: Then COC(=O)C1(SC)C2CCC3C2CCC31 (stereo not given) ?
Outgoing: > 100 µM (inactive)

Incoming: Then COC(=O)C1=C(C)N2CCSC2(C)C(C(=O)OC)C1c1cccc(Cl)c1 (stereo not given) ?
Outgoing: 18.9 µM (inactive)

Incoming: Then `Cc1[nH]c(=O)[nH]c(=S)c1C(=O)NC(C)(CO)CO` ?
Outgoing: > 100 µM (inactive)

Incoming: Then `CCOc1ccc(-n2nnc3c(N)nc(N)nc32)cc1` ?
Outgoing: > 100 µM (inactive)

---

# GI50 per entry
# System: RXF 631
# METHOD NOTES: NCI tumour cell line growth inhibition, 48 h
Active and inactive are the calls of the source. Cut-off read from the data, not from the text of the source: active = GI50 up to about 1.1 µM and inactive = higher.

O=C1N=C(Nc2ccccc2Cl)SC1C(=O)Nc1ccc([N+](=O)[O-])cc1[N+](=O)[O-] (stereo not given) :: > 100 µM (inactive)
N#CC(/C(CCCC(=O)Nc1cccc([N+](=O)[O-])c1)=N/NC(=O)c1cc2ccccc2cc1O)c1ccccc1 (stereo not given) :: 29.8 µM (inactive)
COc1ccc2[nH]c3c(c2c1)[C@H](C)C[C@@H]1C(=O)N(c2ccccc2)C(=O)[C@H]31 :: 20.5 µM (inactive)

Incoming: Which GI50 is reported with RXF 631 for this entry: COc1ccc(/C=C2\CCC(CCN(C)C)(C3=CCCC3)C2=O)cc1Br (stereo not given) ?
Outgoing: 14.7 µM (inactive)

Incoming: Then CCCC(Sc1ccccc1)P(=O)(c1ccccc1)c1ccccc1 (stereo not given) ?
Outgoing: 30.1 µM (inactive)

---

# GI50 per entry
# System: MCF7
# METHOD NOTES: NCI tumour cell line growth inhibition, 48 h
The source made the active and inactive calls. Rule as the data show it: active = GI50 up to about 1.1 µM and inactive = higher.

C/C(=N\Nc1nc2ccccc2s1)c1cnccn1 :: 1.52 µM (inactive)
COc1ccc(-c2c3c(nc4[nH]c(=S)[nH]c(=S)c24)CCCC3)cc1OC :: 29.6 µM (inactive)
O=C(NCCn1ccnn1)Nc1ccccc1 :: > 100 µM (inactive)
COc1cc(C2c3cc4c(cc3[C@@H](Nc3ccc(F)cc3)C3CO[C@@H](O)[C@H]23)OCO4)cc(OC)c1O (stereo partly specified) :: 1.9 µM (inactive)
COc1cnc2oc3ccc(O)cc3c2c1-c1ccccc1 :: 39.7 µM (inactive)

Continue with the next molecule.
Incoming: Item under review: CCC(N)(C(=O)O)C(C)C (stereo unspecified) . Reported GI50?
Outgoing: > 100 µM (inactive)

---

# Test system: CCRF-CEM
# METHOD NOTES: NCI tumour cell line growth inhibition, 48 h
Activity calls are given as the source filed them. Rule as the data show it: active = GI50 up to about 1.1 µM and inactive = higher.
# GI50 per entry

Record excerpt, results attached:
CC1(C)CC2=C(SC3C=CC=CC3N2)C(=O)C1C(=O)C(N)=O (stereo unspecified) :: > 100 µM (inactive)
Cc1cc(O)c2c(c1)CC(O)C1=C2C(=O)c2c(O)ccc(OC3CC(O)C(OC4CC(OC5CCC(O)C(C)O5)C(O)C(C)O4)C(C)O3)c2C1=O (stereo unspecified) :: 0.203 µM (active)
COc1ccc(C(=O)Cn2c(C(=O)/C=C/c3ccco3)nc3ccccc32)cc1 :: 25.1 µM (inactive)
CC(=O)OC[C@@]1(C)[C@@H]2[C@@H]3[C@@]4(CO[C@]3(C)C(=O)[C@@]3(OC(C)=O)C[C@H](C)[C@H](OC(C)=O)[C@@H]3[C@H]4OC(C)=O)[C@H](OC(=O)c3ccccc3)C[C@@H]21 :: 32.8 µM (inactive)
O=C1C(=Cc2ccc(O)cc2)N=C(c2ccccc2)N1n1c(-c2ccccc2)nc2ccccc2c1=O :: 32 µM (inactive)
CCC(N)(C(=O)O)C(C)C (stereo unspecified) :: > 100 µM (inactive)

Incoming: Item under review: `Cc1cccc(NC(N)=S)c1` . Reported GI50?
Outgoing: > 100 µM (inactive)

Incoming: Then `CCOc1ccc(N(CC(=O)N2CC(=O)Nc3cc(C)c(C)cc32)C(C)=O)cc1` ?
Outgoing: > 100 µM (inactive)

Incoming: Then O=C1Sc2ccccc2C(=O)N2CSCC12 (stereo unspecified) ?
Outgoing: > 100 µM (inactive)
